Taken from the supplement of paper PMC10065799.

system: c-Abl (mouse); assay: phosphorylation enrichment, bacterial display (enrichment ratio); higher = better substrate or ligand; peptides without Tyr show the background;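 also: 11-residue human phosphosite peptides and single-mutation variants displayed on the E. coli surface, counted by deep sequencing, each peptide's frequency after selection divided by its frequency in the unselected input library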;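 also: frequency after pTyr selection over input frequency; kinase dosed for 20-30% of maximal phosphorylation in three min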
Recorded metric: phosphorylation enrichment

q: What value of phosphorylation enrichment has been recorded for this entry: TWSSSYRSDRL [CRYBB1_Y131]
a: 0.593

Record phosphorylation enrichment for all entries; do not skip any.
1. GKTQQYECKWY [BCR_Y751_D752E]
2. TLNHQYDFTFD [CSNK1A1_Y292_YF]

a:
1. 0.681
2. 0.705

###

molecular target: EPHB1 (UniProt P54762); test: phosphorylation enrichment, bacterial display (enrichment ratio); higher = better substrate or ligand; peptides without Tyr show the background
Sequence (P54762 whole entry, looked up): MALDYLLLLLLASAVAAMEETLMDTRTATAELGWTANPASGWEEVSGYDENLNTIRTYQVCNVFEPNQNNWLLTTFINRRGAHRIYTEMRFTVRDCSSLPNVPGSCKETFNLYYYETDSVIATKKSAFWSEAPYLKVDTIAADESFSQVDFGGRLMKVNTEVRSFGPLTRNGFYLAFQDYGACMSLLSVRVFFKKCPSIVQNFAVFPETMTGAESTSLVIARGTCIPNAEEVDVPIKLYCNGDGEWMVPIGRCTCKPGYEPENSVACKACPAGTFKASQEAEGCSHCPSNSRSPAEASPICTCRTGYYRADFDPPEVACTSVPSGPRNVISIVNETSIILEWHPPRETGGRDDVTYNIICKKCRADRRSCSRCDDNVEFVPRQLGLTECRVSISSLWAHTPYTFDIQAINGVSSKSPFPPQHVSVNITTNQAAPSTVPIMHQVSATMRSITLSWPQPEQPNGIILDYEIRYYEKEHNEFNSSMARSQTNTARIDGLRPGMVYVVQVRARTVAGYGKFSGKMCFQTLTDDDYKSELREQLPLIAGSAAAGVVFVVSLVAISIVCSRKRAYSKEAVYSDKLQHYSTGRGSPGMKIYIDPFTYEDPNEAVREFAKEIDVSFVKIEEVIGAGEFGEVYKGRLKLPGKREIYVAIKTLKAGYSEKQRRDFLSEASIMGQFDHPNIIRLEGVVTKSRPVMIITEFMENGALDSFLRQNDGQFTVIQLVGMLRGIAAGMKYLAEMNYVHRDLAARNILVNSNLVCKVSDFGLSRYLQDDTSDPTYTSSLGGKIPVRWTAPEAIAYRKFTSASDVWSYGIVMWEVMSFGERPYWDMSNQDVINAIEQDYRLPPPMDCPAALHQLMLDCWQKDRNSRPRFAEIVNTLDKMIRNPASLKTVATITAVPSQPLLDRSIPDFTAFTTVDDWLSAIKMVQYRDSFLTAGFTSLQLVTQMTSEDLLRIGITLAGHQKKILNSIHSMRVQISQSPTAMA
Recorded metric: phosphorylation enrichment
Answers are plain numbers.

Consider the worked cases shown below.
q: Fill in: phosphorylation enrichment of KWKQKYEESQS [MYH6_Y1462_E1457K] is ___
a: 0.508

q: GET /values?readout=phosphorylation enrichment&item= NHFKIYNPCAE [PTEN_Y68_L70P_YF]
a: 0.494

Field: next sequence
q: Requested field: phosphorylation enrichment. Item: WFKKFYDANFD [MAPRE2_Y158_YF]
a: 0.501
